# Tested on: 349418-098-R-PDC complex spheroid viability;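 further: spheroids exposed to compound for seven days before viability readout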
# experiment: Anticancer human tumor 349418-098-R-PDC patient-derived lung adenocarcinoma cell line growth inhibition [RAS]
# study.conditions: second compound 0.00949 µM; first compound 0.00316 µM; hits give low values
experimental.endpoint: viability, T/C

Q: Record request: viability, T/C value, item CCN1CCN(Cc2ccc(Nc3ncc(F)c(-c4cc(F)c5nc(C)n(C(C)C)c5c4)n3)nc2)CC1 + CCn1c(-c2cc(N3CCN(C)CC3)cnc2C(C)OC)c2c3cc(ccc31)-c1csc(n1)CC(NC(=O)C1CC1C)C(=O)N1CCCC(N1)C(=O)OCC(C)(C)C2
Ans: 103%

Q: Please report the recorded viability, T/C for C=CC(=O)N1CCN(c2nc(OCC3CCCN3C)nc3c(F)c(-c4nc(N)cc(C)c4C(F)(F)F)c(Cl)cc23)C(C)C1 (centres undefined) + CCn1c(-c2cc(N3CCN(C)CC3)cnc2C(C)OC)c2c3cc(ccc31)-c1csc(n1)CC(NC(=O)C1CC1C)C(=O)N1CCCC(N1)C(=O)OCC(C)(C)C2 .
Ans: 101%

Q: Need viability, T/C, item C=CC(=O)N1CCN(c2nc(OCC3CCCN3C)nc3c(F)c(-c4nc(N)cc(C)c4C(F)(F)F)c(Cl)cc23)C(C)C1 (centres undefined) + CCn1c(-c2cccnc2C(C)OC)c2c3cc(ccc31)N1CCOC(CC(NC(=O)C(C(C)C)N(C)C(=O)C3(F)CCN(C(=O)C#CC(C)(C)N(C)C)CC3)C(=O)N3CCCC(N3)C(=O)OCC(C)(C)C2)C1
Ans: 105%

Q: Field request: viability, T/C | item: O=C(c1ccc(F)c(F)c1Nc1ccc(I)cc1F)N1CC(O)([C@@H]2CCCCN2)C1 + CCn1c(-c2cccnc2C(C)OC)c2c3cc(ccc31)N1CCOC(CC(NC(=O)C(C(C)C)N(C)C(=O)C3(F)CCN(C(=O)C#CC(C)(C)N(C)C)CC3)C(=O)N3CCCC(N3)C(=O)OCC(C)(C)C2)C1
Ans: 28.6%
